The reader will find reported DC50 values listed item by item below.
Biological target: androgen receptor (AR) (Homo sapiens, UniProt P10275)
Sequence (P10275 1-920): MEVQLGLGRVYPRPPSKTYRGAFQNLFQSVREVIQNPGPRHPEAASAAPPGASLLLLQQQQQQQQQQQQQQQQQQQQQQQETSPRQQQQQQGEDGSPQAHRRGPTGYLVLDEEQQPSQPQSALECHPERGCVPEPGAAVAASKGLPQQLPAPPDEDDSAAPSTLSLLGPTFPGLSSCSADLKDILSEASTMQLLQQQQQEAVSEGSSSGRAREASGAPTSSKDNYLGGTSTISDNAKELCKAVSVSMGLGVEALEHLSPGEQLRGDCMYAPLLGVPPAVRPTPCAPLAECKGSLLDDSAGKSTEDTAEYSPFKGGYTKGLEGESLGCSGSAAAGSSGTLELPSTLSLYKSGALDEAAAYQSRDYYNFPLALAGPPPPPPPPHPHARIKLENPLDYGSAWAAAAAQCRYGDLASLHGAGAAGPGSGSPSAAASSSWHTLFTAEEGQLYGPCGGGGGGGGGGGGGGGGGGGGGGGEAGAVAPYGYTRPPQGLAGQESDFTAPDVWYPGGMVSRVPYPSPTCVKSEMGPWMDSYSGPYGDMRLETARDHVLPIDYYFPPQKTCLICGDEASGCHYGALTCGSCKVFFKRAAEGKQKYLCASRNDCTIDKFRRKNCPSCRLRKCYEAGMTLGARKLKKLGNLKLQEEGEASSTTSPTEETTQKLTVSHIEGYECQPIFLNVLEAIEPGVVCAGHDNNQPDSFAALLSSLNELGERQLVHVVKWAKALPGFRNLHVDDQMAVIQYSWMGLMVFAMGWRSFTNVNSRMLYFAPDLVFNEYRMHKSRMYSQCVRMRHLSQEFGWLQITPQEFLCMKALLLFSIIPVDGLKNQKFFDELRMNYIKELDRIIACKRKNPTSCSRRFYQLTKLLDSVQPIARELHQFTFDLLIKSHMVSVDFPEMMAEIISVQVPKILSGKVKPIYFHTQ
Test: Degradation of androgen receptor (AR) protein in VCaP cells by ELISA
Type: cell-based

- compound: "N#Cc1ccc(O[C@H]2CC[C@H](NC(=O)c3cnc(N4CCC(CN5CCC6(CC5)CN(c5ccc7c(c5)C(=O)N(C5CCC(=O)NC5=O)C7=O)C6)CC4)cn3)CC2)cc1Cl (stereo partly drawn)"
  DC50: "< 0.01 µM"
- compound: "N#Cc1ccc(O[C@H]2CC[C@H](NC(=O)c3ccc(N4CCC(CN5CCC6(CC5)CN(c5ccc7c(c5)C(=O)N(C5CCC(=O)NC5=O)C7=O)C6)CC4)nn3)CC2)cc1Br (stereo partly drawn)"
  DC50: "< 0.01 µM"
- compound: "N#Cc1ccc(O[C@H]2CC[C@H](NC(=O)c3nnc(N4CCC(CN5CCC6(CC5)CN(c5ccc7c(c5)C(=O)N(C5CCC(=O)NC5=O)C7=O)C6)CC4)s3)CC2)cc1Cl (stereo partly drawn)"
  DC50: "< 0.01 µM"
